Test system: SNB-19 CNS
assay.name: NCI tumour cell line growth inhibition, 48 h
Can you tell me TGI for the items I'm about to list?

Look over these answered cases.
# compound, reported
rows = [
    ("Cc1nc2ccccc2c(/C=C/c2ccc(Br)cc2)c1C(=O)/C=C/c1ccccc1", "3.05 µM"),
    ("CC1OC(OC2C(OC(=O)[C@@H]3CC(C)(C)C[C@H]4C5=CC[C@@H]6[C@@]7(C)C[C@H](O)[C@H](OC8OC(CO)C(O)C(O)C8O)[C@@](C)(CO)[C@@H]7[C@H](O)C[C@@]6(C)[C@]5(C)CC[C@@]34C)OCC(O)C2O)C(O)C(O)C1O (stereo not given in full)", "> 7.5 µM"),
    ("CNS(=O)(=O)NNS(=O)(=O)c1ccc(Cl)cc1", "> 100 µM"),
    ("COC1O[C@@H]2C[C@H]3C(C)(C)CCC[C@]3(C)C3=CCCC1[C@@]32C (stereo not given in full)", "> 100 µM"),
    ("CC1=CC(=O)C(O)C2(C)C1CC(O)C13COC4(C)C(OC(=O)C41)C(O)C23 (stereo not given)", "> 100 µM"),
    ("CC(C)[C@@H]1ON1C(C)c1ccccc1 (stereo not given in full)", "> 100 µM"),
]

// each compound listed below needs its TGI
1. CN(C)c1ccc(/C=C2\C=Cc3ccccc32)cc1
2. CCN(c1cccc(NC(=S)Nc2ccccc2N(CC)c2cc(-c3ccccc3)no2)c1)c1cc(-c2ccccc2)no1
3. CC1(C)OC2C(=O)C=C(COCc3ccccc3)C2O1 (stereo not given)
4. CC(C)(C)c1cc(C2COC(c3cc(C(C)(C)C)c(O)c(C(C)(C)C)c3)CO2)cc(C(C)(C)C)c1O (stereo not given)
5. COc1ccc(C=O)c(NC(=O)C(C)C)c1
6. Cc1cc(NCCCCCCCNc2cc(C)nc3cc([N+](=O)[O-])ccc23)c2ccc([N+](=O)[O-])cc2n1

# output
1: > 100 µM; 2: > 100 µM; 3: > 100 µM; 4: > 100 µM; 5: > 100 µM; 6: 39.5 µM

---

System: 786-0 renal
assay.name: NCI tumour cell line growth inhibition, 48 h; in the data active = GI50 below about 0.43 µM; inactive = the rest
Returns: one label drawn from active, inactive

Reference set, count: 8
# compound, cat
records = [
    ("CN(CCCCCl)P(=O)(OCCS(=O)(=O)CC(NC(=O)CCC(N)C(=O)O)C(=O)NC(C(=O)O)c1ccccc1)OCC1OC(n2cc(F)c(=O)[nH]c2=O)CC1O (centres undefined)", "active"),
    ("COc1ccc2c(c1OC)C(=O)OC2C1c2c(c([N+](=O)[O-])c3c(c2OC)OCO3)CCN1C (centres undefined)", "inactive"),
    ("CN1CCN(Cc2ccc(NC(=O)c3[nH]ncc3Nc3ncnc4sc5c(c34)CCCC5)cc2)CC1", "active"),
    ("N#CN1CC[C@H](C(=O)Nc2ncc(-c3ccncc3)s2)C1", "active"),
    ("CCN1C(=O)N(CC)C2C1NN=c1s/c(=C3\\C(=O)N(CCc4ccccc4)c4ccccc43)c(=O)n12 (centres undefined)", "inactive"),
    ("C[C@@H]1O[C@@H](OC[C@H]2O[C@@H](OCCc3ccc(O)c(O)c3)[C@H](O)[C@@H](O)[C@@H]2OC(=O)/C=C/c2ccc(O)c(O)c2)[C@H](O)[C@H](O)[C@H]1O", "inactive"),
    ("CC(=O)c1c(C(F)(F)F)n([O-])c2ccc(C)cc2[n+]1=O", "inactive"),
    ("BrCc1ccc(CBr)cc1", "inactive"),
]

Query compound follows.
# input Called result for CN1CCC(n2cnc(-c3ccc(F)cc3)c2-c2ccnc(N)n2)CC1
# output inactive
